Target: T1, Fus1, P11710
T1 sequence (P11710 432-512, looked up): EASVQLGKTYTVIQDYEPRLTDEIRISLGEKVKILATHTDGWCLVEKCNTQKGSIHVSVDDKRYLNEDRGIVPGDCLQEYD
Experiment: SPOT array
Conditions: median of control spots 1200
READOUT KIND: SPOT intensity
Respond with the number and no other words.

**Query** Check the records and state SPOT intensity for `VPPPMQPPPIESSNL`
**Result** 1

**Query** Specify SPOT intensity for `RFKRHRLEFPFNESE` and stop.
**Result** 34

**Query** Identify the reported SPOT intensity for the following entry. `PPPPPPPPPPPLPQS`
**Result** 2

**Query** Annotate the binder `RTRRRPPPPPIPSTQ` with its measured SPOT intensity.
**Result** 13

---
**Query** In one line, give reported SPOT intensity of the entry `RRARRQMGIPTISQV` .
**Result** 1

**Query** Fill in SPOT intensity for record `MFLISPPASPPPEFD`
**Result** 0

**Query** For the binder `RKRRTHLRLPLIRSN` , give its measured SPOT intensity value.
**Result** 55

**Query** Please list SPOT intensity recorded for the binder `DKSRPPRPPPKPLHL`
**Result** 0

**Query** Tell me its SPOT intensity given `TKFRISLGLPVGAIM` as the entry.
**Result** 32

**Query** Give the reported value of SPOT intensity for this record: `NFLRLLIGLPSQNEL`
**Result** 243

**Query** Supply measured SPOT intensity of `NMLSRPRLAKLPSIR` in your reply.
**Result** 12

**Query** Supply measured SPOT intensity of `KWVRRPKLMTPLTFS` in your reply.
**Result** 54

**Query** State, in one line, measured SPOT intensity of `MKRSRPSRSIPYTTP`
**Result** 5

**Query** Return the recorded SPOT intensity value; entry: `KDKSRPPRPPPKPLH`
**Result** 0

**Query** Given `SHRLWLYAAPKRPKT` , respond with its SPOT intensity.
**Result** 20
